These measurements were taken from patent US7842469B2.

Reported Wavelength (nm) mean by item:
- MEASUREMENT_NOTES: Bioluminescence emission spectra
- Assay type: physicochemical
- CONDITIONS_USED: emission spectrum with native coelenterazine
Write the value in nm as a bare number.

MOLECULE	UNIT_SYMBOL	REPORTED_RESULT
F116L/C124A: RLuc mutant F116L/C124A (protein) MASKVYDPEQRKRMITGPQWWARCKQMNVLDSFINYYDSEKHAENAVIFLHGNAASSYLWRHVVPHIEPVARCIIPDLIGMGKSGKSGNGSYRLLDHYKYLTAWFELLNLPKKIILVGHDWGAALAFHYSYEHQDKIKAIVHAESVVDVIESWDEWPDIEEDIALIKSEEGEKMVLENNFFVETMLPSKIMRKLEPEEFAAYLEPFKEKGEVRRPTLSWPREIPLVKGGKPDVVQIVRNYNAYLRASDDLPKMFIESDPGFFSNAIVEGAKKFPNTEFVKVKGLHFSQEDAPDEMGKYIKSFVERVLKNEQ	nm	502

Lab note: next molecule to report on.
IN: # Wavelength (nm) mean lookup, item C124A/G229E: RLuc mutant C124A/G229E (protein) MASKVYDPEQRKRMITGPQWWARCKQMNVLDSFINYYDSEKHAENAVIFLHGNAASSYLWRHVVPHIEPVARCIIPDLIGMGKSGKSGNGSYRLLDHYKYLTAWFELLNLPKKIIFVGHDWGAALAFHYSYEHQDKIKAIVHAESVVDVIESWDEWPDIEEDIALIKSEEGEKMVLENNFFVETMLPSKIMRKLEPEEFAAYLEPFKEKGEVRRPTLSWPREIPLVKGEKPDVVQIVRNYNAYLRASDDLPKMFIESDPGFFSNAIVEGAKKFPNTEFVKVKGLHFSQEDAPDEMGKYIKSFVERVLKNEQ
OUT: 490
